- TEST DETAILS: photoluminescence quantum yield (fraction); solvent given as SMILES
- SETUP CONDITIONS: in ClCCl
Label MET when photoluminescence quantum yield is strictly below 0.4; otherwise label NOT MET.

Reference set, count: 6
COc1ccc2oc(=N)c(C#N)cc2c1 : MET
COc1ccc(N(c2ccc(OC)cc2)c2cc(N(c3ccc(OC)cc3)c3ccc(OC)cc3)c3ccc4cc(C(C)(C)C)cc5ccc2c3c54)cc1 : NOT MET
CCCCCC(=O)c1ccc2c3c(sc2c1)-c1ccccc1P3(=O)c1ccccc1 (centres undefined) : MET
COc1nnc(Cl)nn1 : MET
[O-][n+]1c(-c2ccc(Br)cc2)cc(N2CCOCC2)nc1/C=C/c1ccccc1 : MET
CCCCCCN1C(=O)c2cccc3c(-c4ccc(-c5cc(-c6ccc(OC)cc6)n(-c6ccccc6)n5)s4)ccc(c23)C1=O : MET

Problem: Is 0.4 strictly greater than the molecule's reported photoluminescence quantum yield? molecule: `COC(=O)c1ccc(O)c(-c2[nH]c(=O)n3c2-c2ccccc2C3=O)c1`
Solution: NOT MET

Problem: Lab note: photoluminescence quantum yield threshold 0.4. Does this molecule come in strictly under it? O=P1(c2ccccc2)C(c2ccc(N(c3ccccc3)c3ccccc3)cc2)=Cc2ccccc21 (centres undefined)
Solution: NOT MET

Problem: # strict comparison: is reported photoluminescence quantum yield < 0.4? input = `COc1ccc(-c2cc(-c3ccccc3)c3n2[B-](F)(F)[N+]2=C4C=NC=CN4[B-](F)(F)[N+]2=C3)cc1`
Solution: NOT MET
